- Test system: CAL-51
- assay overview: normalised viability (% of control), CellTiter-Blue; higher = more viable cells (about 100 = DMSO control)
- setup conditions: 30 nM; incubation time: 72 h
experimental endpoint: normalised viability (%)
Note: unit % is implicit; provide only the numeric part.

A selection of reference data follows.
compound	experimental endpoint	data value
C[C@]1(O)C[C@@H](c2nc(-c3ccc4ccc(-c5ccccc5)nc4c3)c3c(N)nccn32)C1	normalised viability	97.5
CC1(C)CNc2cc(NC(=O)c3cccnc3NCc3ccncc3)ccc21	normalised viability	110
Cn1cc(C2=Nc3cc(NC(=O)C(N)C4CCCCC4)cc4c3C2=CNNC4=O)cn1 (stereo not given)	normalised viability	87.2
Cn1cnc2c(F)c(Nc3ccc(Br)cc3Cl)c(C(=O)NOCCO)cc21	normalised viability	102

# ---- query compound ----
Exam item: What value of measured normalised viability is listed for CC(C)(C)c1cnc(CSc2cnc(NC(=O)C3CCNCC3)s2)o1 ?
Marked response: 107

###

Below, each entry is listed alongside its reported normalised response.
- Tested on: MFM-223
- assay overview: normalised response (% of control), CellTiter-Glo; higher = more viable cells (100 = DMSO, 0 = benzethonium chloride kill control)
- setup conditions: incubation time: 72 h
Note: unit % is implicit; provide only the numeric part.

molecule	normalised response [%]
C[C@]1(O)C[C@@H](c2nc(-c3ccc4ccc(-c5ccccc5)nc4c3)c3c(N)nccn32)C1 [Linsitinib] (100 nM)	91.4
CC(=O)c1c(C)c2cnc(Nc3ccc(N4CCNCC4)cn3)nc2n(C2CCCC2)c1=O [Palbociclib] (100 nM)	79.7
Oc1ncnc2[nH]ncc12 [Allopurinol] (100 nM)	109

Exam item: What value of measured normalised response is listed for CC[C@@H]1C(=O)OC[C@@H]1Cc1cncn1C [Pilocarpine] (400 nM) ?
Marked response: 101

Exam item: // next record O=NN(CCCl)C(=O)NCCCl [Carmustine] (100 nM)
Marked response: 98.3

###

- Tested on: CAL-120
- assay overview: normalised response (% of control), CellTox Green; higher = less cell death (100 = DMSO, 0 = benzethonium chloride kill control)
- setup conditions: incubation time: 72 h
experimental endpoint: normalised response (%)
Note: unit % is implicit; provide only the numeric part.

A selection of reference data follows.
molecule	unit symbol	data value
Cn1cnc2c(F)c(Nc3ccc(Br)cc3Cl)c(C(=O)NOCCO)cc21 [Selumetinib] (10000 nM)	%	87.3
CC[C@@H]1C(=O)OC[C@@H]1Cc1cncn1C [Pilocarpine] (4000 nM)	%	99.3
Oc1ncnc2[nH]ncc12 [Allopurinol] (100 nM)	%	103

Exam item: What value of measured normalised response is listed for CC1(C)CCC(CN2CCN(c3ccc(C(=O)NS(=O)(=O)c4ccc(NCC5CCOCC5)c([N+](=O)[O-])c4)c(Oc4cnc5[nH]ccc5c4)c3)CC2)=C(c2ccc(Cl)cc2)C1 [ABT-199] (100 nM) ?
Marked response: 101

Exam item: // next record CC(=O)N(O)CCCCCNC(=O)CCC(=O)N(O)CCCCCNC(=O)CCC(=O)N(O)CCCCCN [Deferoxamine] (1000 nM)
Marked response: 96.8

Exam item: // next record Nc1ncn([C@@H]2O[C@H](CO)[C@@H](O)[C@H]2O)c(=O)n1 [Azacitidine] (1000 nM)
Marked response: 101

Exam item: // next record CC(=O)N(O)CCCCCNC(=O)CCC(=O)N(O)CCCCCNC(=O)CCC(=O)N(O)CCCCCN [Deferoxamine] (100 nM)
Marked response: 103

Exam item: // next record Nc1ncn([C@@H]2O[C@H](CO)[C@@H](O)[C@H]2O)c(=O)n1 [Azacitidine] (100 nM)
Marked response: 96.9

###

- Tested on: HCC1143
- assay overview: normalised viability (% of control), CellTiter-Blue; higher = more viable cells (about 100 = DMSO control)
- setup conditions: 1000 nM; incubation time: 72 h
experimental endpoint: normalised viability

A selection of reference data follows.
compound	data value
Oc1ncnc2[nH]ncc12	123%
Cn1cnc2c(F)c(Nc3ccc(Br)cc3Cl)c(C(=O)NOCCO)cc21	58.2%
CC(C)(C)c1cnc(CSc2cnc(NC(=O)C3CCNCC3)s2)o1	17.5%
Nc1nc2[nH]cnc2c(=S)[nH]1	103%
COc1cc2c(cc1O)CC[C@@H]1[C@@H]2CC[C@]2(C)[C@@H](O)CC[C@@H]12	82.7%

# ---- query compound ----
Exam item: What value of measured normalised viability is listed for Cc1sc2c(c1C)C(c1ccc(Cl)cc1)=N[C@@H](CC(=O)OC(C)(C)C)c1nnc(C)n1-2 [(+)JQ1] ?
Marked response: 67.6%

###

- Test system: CAL-148
- assay overview: normalised response (% of control), CellTiter-Glo; higher = more viable cells (100 = DMSO, 0 = benzethonium chloride kill control)
- setup conditions: incubation time: 72 h
Classify by measured normalised response: condition met if it is equal to or exceeds 80%, condition not met if it is smaller.

Solved entries (count: 3):
molecule	assigned class
Cc1ccc([N+](=O)[O-])cc1S(=O)(=O)N(C)/N=C/c1cnc2ccc(Br)cn12 [PIK-75] (10000 nM)	condition not met
C[C@]1(O)C[C@@H](c2nc(-c3ccc4ccc(-c5ccccc5)nc4c3)c3c(N)nccn32)C1 [Linsitinib] (10000 nM)	condition met
CC(=O)N(O)CCCCCNC(=O)CCC(=O)N(O)CCCCCNC(=O)CCC(=O)N(O)CCCCCN [Deferoxamine] (10000 nM)	condition not met

Then there is this molecule:
Exam item: decide whether the reported normalised response for CC[C@@H]1C(=O)OC[C@@H]1Cc1cncn1C [Pilocarpine] (40000 nM) is at least 80%.
Marked response: condition met

###

- Tested on: MDA-MB-231
- assay overview: normalised response (% of control), CellTiter-Glo; higher = more viable cells (100 = DMSO, 0 = benzethonium chloride kill control)
- setup conditions: incubation time: 72 h
Below, each entry is listed alongside its reported normalised response.
Note: unit % is implicit; provide only the numeric part.

compound	unit symbol	normalised response
CC(=O)O[C@@]12CO[C@@H]1C[C@H](O)[C@@]1(C)C(=O)[C@H](O)C3=C(C)[C@@H](OC(=O)[C@H](O)[C@@H](NC(=O)OC(C)(C)C)c4ccccc4)C[C@@](O)([C@@H](OC(=O)c4ccccc4)[C@H]21)C3(C)C [Docetaxel] (1000 nM)	%	28.5

Exam item: What value of measured normalised response is listed for C[C@]12CC[C@@H]3c4ccc(OC(=O)N(CCCl)CCCl)cc4CC[C@H]3[C@@H]1CC[C@@H]2O [Estramustine] (10000 nM) ?
Marked response: 96.6

Exam item: // next record CC(=O)c1c(C)c2cnc(Nc3ccc(N4CCNCC4)cn3)nc2n(C2CCCC2)c1=O [Palbociclib] (10000 nM)
Marked response: 84.3

Exam item: // next record Nc1nc2[nH]cnc2c(=S)[nH]1 [Thioguanine] (10000 nM)
Marked response: 33.4

Exam item: // next record CC1(C)CCC(CN2CCN(c3ccc(C(=O)NS(=O)(=O)c4ccc(NCC5CCOCC5)c([N+](=O)[O-])c4)c(Oc4cnc5[nH]ccc5c4)c3)CC2)=C(c2ccc(Cl)cc2)C1 [ABT-199] (10000 nM)
Marked response: 66.3

Exam item: // next record CC(=O)N(O)CCCCCNC(=O)CCC(=O)N(O)CCCCCNC(=O)CCC(=O)N(O)CCCCCN [Deferoxamine] (10000 nM)
Marked response: 71.8

Exam item: // next record Cc1ccc([N+](=O)[O-])cc1S(=O)(=O)N(C)/N=C/c1cnc2ccc(Br)cn12 [PIK-75] (10000 nM)
Marked response: 1.78

Exam item: // next record COc1cc(F)c(F)c(Nc2ccc(I)cc2F)c1NS(=O)(=O)C1(C[C@H](O)CO)CC1 [Refametinib] (10000 nM)
Marked response: 43.7

###

Below, each entry is listed alongside its reported drug sensitivity score.
- System: CAL-51
- assay overview: drug sensitivity score (DSS), CellTox Green (DSS (AUC-based score)); higher = stronger drug effect (viability inhibition or cytotoxicity); extreme values may be limits of the assay
- setup conditions: incubation time: 72 h
Quick one: just the number, no unit, thanks!

A selection of reference data follows.
compound	drug sensitivity score
CC[C@@H]1C(=O)OC[C@@H]1Cc1cncn1C [Pilocarpine]	0
Cc1sc2c(c1C)C(c1ccc(Cl)cc1)=N[C@@H](CC(=O)OC(C)(C)C)c1nnc(C)n1-2 [(+)JQ1]	6.31
CC(=O)c1c(C)c2cnc(Nc3ccc(N4CCNCC4)cn3)nc2n(C2CCCC2)c1=O [Palbociclib]	0

# ---- query compound ----
Exam item: What value of measured drug sensitivity score is listed for Nc1ncn([C@@H]2O[C@H](CO)[C@@H](O)[C@H]2O)c(=O)n1 [Azacitidine] ?
Marked response: 0
